- System: A/Massachusetts/3740/1965 (H6N2)
- Test summary: microbe, parasite or virus in culture
- Assay type: cell-based
- Settings: Influenza A virus, H6N2, MDCK
Value kind: pIC50
Hey, just a heads up that pIC50 is the negative log base 10 of the concentration in molar.

Lookup result for O=C(O)c1cc(-c2ccc(-c3ccccc3)cc2)nc2ccccc12 [RK424] ; measured pIC50: 6.23

----------
- Test system: A/Astrakhan/263/1982 (H14N15)
- Test summary: microbe, parasite or virus in culture
- Format: cell-based
- Settings: Influenza A virus, MDCK
Value kind: pIC50
In simple prose, pIC50 is minus the logarithm base ten of a concentration in moles per litre.

Measured pIC50 of `O=C(O)c1cc(-c2ccc(-c3ccccc3)cc2)nc2ccccc12` : 6.38

----------
- System: A/Ontario/6118/1968 (H8N4)
- Test summary: microbe, parasite or virus in culture
- Assay type: cell-based
- Settings: Influenza A virus, H8N4, MDCK
Value kind: pIC50
# pIC50 is unitless: minus log10 of the molar concentration; print number only

pIC50 measured on O=C(O)c1cc(-c2ccc(-c3ccccc3)cc2)nc2ccccc12 [RK424] = 6.31

----------
- Test summary: in vitro
- Settings: dog, CC50 (50% cytotoxicity concentration), MDCK cells, WST-1 assay
Value kind: CC50

Use the examples below as a reference point.
Memo: `O=C(O)c1ccnc(-c2ccc(-c3ccccc3)cc2)c1` , reported CC50: > 10 µM

The compound listed as `O=C(O)c1cc(-c2ccc(-c3ccccc3)cc2)nc2ccccc12` shows CC50 equal to ≥ 50 µM

// recorded CC50 for `NC(=O)c1cc(-c2ccc(-c3ccccc3)cc2)nc2ccccc12` : > 10 µM

// CC50 lookup, compound = `O=C(O)c1cc(N2CCN(c3ccccc3)CC2)nc2ccccc12` , result: > 10 µM

Kindly consider the entry below.
Data point: `O=C(O)c1cc(-c2ccc(Oc3ccccc3)cc2)nc2ccccc12` ; CC50 = > 10 µM
